test system: Fibroblast; test: Incucyte cell viability with human fibroblast; type: toxicity, cell-based; details: 18 h, 10 µM, compound concentration 10 uM, replicate number 2; also: unitless GR value; below 1 slowed growth and below 0 cell loss
endpoint-name: Growth Rate
Just the number.

Field: example entries. Status: answers known.
Q) Give a short answer stating reported Growth Rate for `CC(=O)c1ccc2c(c1)/C(=C(/NC1CCN(C)CC1)c1ccc3c(c1)OCO3)C(=O)N2` .
A) 0.48

Q) Give a short answer stating reported Growth Rate for `CCN(C)S(=O)(=O)Nc1cccc(-c2ccc3c(NC(=O)C4CC4)n[nH]c3c2)c1` .
A) -0.16

# next compound below
Q) Give a short answer stating reported Growth Rate for `Cl.O=C(c1ccc(-c2ccc(Cl)cc2)o1)N(Cc1ccccn1)c1ccc(N2CCNCC2)cc1` .
A) -0.43

###

system: HEK-293T; assay: Incucyte cell viability with HEK293T; assay type: toxicity, cell-based; conditions: human, 12 h, 10 µM, compound concentration 10 uM, replicate number 2; also: unitless GR value; below 1 slowed growth and below 0 cell loss
endpoint-name: Growth Rate

Field: example entries. Status: answers known.
Q) Give a short answer stating reported Growth Rate for COCCNC1CCC(Nc2cc(-c3csc(NCC4(C#N)CCOCC4)n3)c(Cl)cn2)CC1 (stereo not given) .
A) -0.48

Q) Give a short answer stating reported Growth Rate for `C[C@]12CC[C@@H]3c4ccc(O)cc4CC[C@H]3[C@@H]1C[C@H]1OC(=O)C[C@]12O` .
A) 0.34

Q) Give a short answer stating reported Growth Rate for COc1cc2c(cc1CC=C(C)C)C(=O)C[C@@H](c1ccc(O)cc1)O2 [BAVACHININ A] .
A) 0.94

***
Q) Give a short answer stating reported Growth Rate for `CCOC(=O)c1ccc(CN(Cc2ccc(-c3cccc(S(C)(=O)=O)c3)cc2)S(=O)(=O)c2c(C)cc(C)cc2C)o1` .
A) 0.98

Q) Give a short answer stating reported Growth Rate for `Cl.NC(=O)c1ccccc1Nc1nc(-c2ccc(N3CCOCC3)cc2)cc2ncccc12` .
A) -0.36

Q) Give a short answer stating reported Growth Rate for `c1ccc2c(c1)SCc1c-2[nH]c2ccccc12` .
A) -0.7

Q) Give a short answer stating reported Growth Rate for CC(C)CC(=O)Nc1cncc(-c2ccc3[nH]nc(-c4nc5c(-c6cccc(F)c6)cncc5[nH]4)c3c2)c1 [LORECIVIVINT] .
A) -0.78

Q) Give a short answer stating reported Growth Rate for O=C(O)Cc1ccc(CCNS(=O)(=O)c2ccc(Cl)cc2)cc1 [DALTROBAN] .
A) 0.95

Q) Give a short answer stating reported Growth Rate for C[C@H](c1ccnc(Nc2nc3ccc(-c4cc(N(C)C)ncn4)cc3[nH]2)c1)N1CCN(C(=O)CC(F)(F)F)CC1 [BAY-985] .
A) 0.95

Q) Give a short answer stating reported Growth Rate for `CCN1/C(=C/C(C)=O)Sc2ccc(OC(C)=O)cc21` .
A) 0.67

Q) Give a short answer stating reported Growth Rate for CC(C)(O)[C@H]1CC[C@H](Nc2ccc3ncc(-c4cccc(C(F)(F)F)c4)n3n2)CC1 [NUVISERTIB] .
A) -0.3

Q) Give a short answer stating reported Growth Rate for `CC(C)(O)CNC(=O)N1C(=O)N(c2cccc(C(F)(F)F)c2)C2=C(C(=O)CC2)[C@H]1c1ccc(C#N)cc1` .
A) 0.98

Q) Give a short answer stating reported Growth Rate for `CN1CCN(C(=O)Cc2ccc(N/C(=C3\C(=O)Nc4cc(Cl)ccc43)c3ccccc3)cc2)CC1` .
A) 0.92

Q) Give a short answer stating reported Growth Rate for O=c1cc(-c2ccccc2)oc2c1ccc1ccccc12 [ALPHA-NAPHTHOFLAVONE] .
A) 0.81

Q) Give a short answer stating reported Growth Rate for CC[C@H](NC(=O)[C@H](C)NC)C(=O)N1C[C@@H](O)C[C@H]1Cc1c(-c2[nH]c3cc(F)ccc3c2C[C@@H]2C[C@H](O)CN2C(=O)[C@H](CC)NC(=O)[C@H](C)NC)[nH]c2cc(F)ccc12 [BIRINAPANT] .
A) 0.97

Q) Give a short answer stating reported Growth Rate for `O=C1Nc2ccc(I)cc2/C1=C/c1cc(Br)c(O)c(Br)c1` .
A) 0.98

Q) Give a short answer stating reported Growth Rate for CCC(F)(F)c1cc(N2CCC(S(C)(=O)=O)CC2)nc2sc(C(N)=O)c(N)c12 [BI-605906] .
A) 0.72

Q) Give a short answer stating reported Growth Rate for `Cl.Cl.N#Cc1ccc(O[C@@H]2c3ccccc3C[C@H]2N2CCC[C@@H](N)C2)c(Cl)c1` .
A) -0.24

Q) Give a short answer stating reported Growth Rate for `CCN(CC)CCO[C@H]1CC[C@@]2(C)C(=CC[C@@H]3[C@@H]2CC[C@]2(C)C(=O)CC[C@@H]32)C1.Cl` .
A) 0.31

Q) Give a short answer stating reported Growth Rate for CN(C)CCCn1cc(C2=C(c3c[nH]c4ccccc34)C(=O)NC2=O)c2ccccc21 [GF-109203] .
A) 0.81

Q) Give a short answer stating reported Growth Rate for `CN(C)CCCNc1ccnc(Nc2cccc(Cl)c2)n1` .
A) -0.09

Q) Give a short answer stating reported Growth Rate for `CCN(C)S(=O)(=O)Nc1cccc(-c2ccc3c(NC(=O)C4CC4)n[nH]c3c2)c1` .
A) -0.46

Q) Give a short answer stating reported Growth Rate for `COc1cc(-c2cncc(-c3cnn(C4CCNCC4)c3)c2)cc(OC)c1OC` .
A) 0.82

Q) Give a short answer stating reported Growth Rate for `C[C@@H](NC(=O)Cc1ccc(C2CC2)cc1)c1ccc(OCC(F)(F)F)cn1` .
A) 0.64

Q) Give a short answer stating reported Growth Rate for `CCN1CCN(Cc2ccc(NC(=O)c3ccc(C)c(NC(=O)c4cncc(-c5cccs5)c4)c3)cc2C(F)(F)F)CC1` .
A) -0.83

All values here come from ChEMBL document CHEMBL5303304.
